system: Klebsiella aerogenes DSM 30053; test: fold change of Cadaverine concentration vs plate DMSO controls (fold change (ratio)); higher = more amine produced, active = hit call of the paper (significant change in both replicates, either direction); settings: incubation time: 27 h, anaerobic, 37 °C
Counter-ions that a name gives are not always drawn.
# reported fold change of Cadaverine concentration; entries follow
Please reply with the value in numeric form only.

See these solved cases before continuing.
compound	measurement_kind	result_value
CCOc1ccc2ccccc2c1C(=O)N[C@@H]1C(=O)N2[C@@H]1SC(C)(C)[C@@H]2C(=O)O [Nafcillin sodium salt monohydrate] (20 µM)	fold change of Cadaverine concentration	1.02
CC(C)NCC(O)c1cc(O)cc(O)c1 (stereo not drawn) [Metaproterenol sulfate] (20 µM)	fold change of Cadaverine concentration	0.992
CC(C)[C@H](N)C(=O)OCC(CO)OCn1cnc2c(=O)nc(N)[nH]c21 (stereo partly drawn) [Valganciclovir hydrochloride] (20 µM)	fold change of Cadaverine concentration	1.01
NC(N)=Nc1nc(CSCC/C(N)=N/S(N)(=O)=O)cs1 [Famotidine] (20 µM)	fold change of Cadaverine concentration	0.99
CC/C=C(\C(=O)N[C@@H]1C(=O)N2C(C(=O)OCOC(=O)C(C)(C)C)=C(COC(N)=O)CS[C@H]12)c1csc(N)n1 [Cefcapene pivoxil hydrochloride monohydrate] (20 µM)	fold change of Cadaverine concentration	1.03

q: Record request: fold change of Cadaverine concentration value, item Cc1ccc(N(CC2=NCCN2)c2cccc(O)c2)cc1 [Phentolamine hydrochloride] (20 µM)
a: 0.993

q: Same thing, different compound: CC(N)(Cc1ccc(O)c(O)c1)C(=O)O (stereo not drawn) [(L) Methyldopa] (20 µM)
a: 1.07

q: Same thing, different compound: O=C(O)Cc1ccc(-c2ccccc2)cc1 [Felbinac] (20 µM)
a: 0.998

---

system: Clostridium sporogenes DSM 1664; assay: growth (OD595) fold change vs plate DMSO controls (fold change (ratio)); higher = more growth; conditions: incubation time: 27 h, anaerobic, 37 °C
Where a name gives a salt, the structure may show the parent alone.
measurement_kind: growth
Please reply with the value in numeric form only.

See these solved cases before continuing.
molecule	target_under_test	growth
C[N+](C)(C)CCCCCC[N+](C)(C)C [Hexamethonium dibromide dihydrate] (20 µM)	Clostridium sporogenes DSM 1664	0.959
O=C(NCCN1CCOCC1)c1ccc(Cl)cc1 [Moclobemide] (20 µM)	Clostridium sporogenes DSM 1664	1.03
CCCC(CCC)C(=O)O [Valproic acid] (20 µM)	Clostridium sporogenes DSM 1664	1.23
CC1(C)[C@H](C(=O)O)N2C(=O)C[C@H]2S1(=O)=O [Sulbactam] (20 µM)	Clostridium sporogenes DSM 1664	0.592
CC(=O)N[C@@H](CCC(N)=O)C(=O)O [Acetyl-L-glutamine] (20 µM)	Clostridium sporogenes DSM 1664	1.04

q: Record request: growth value, item COc1cnc(NS(=O)(=O)c2ccc(N)cc2)nc1 [Sulfameter] (20 µM)
a: 0.997

q: Same thing, different molecule: CS(=O)(=O)c1ccc([C@@H](O)[C@@H](CO)NC(=O)C(Cl)Cl)cc1 [Thiamphenicol] (20 µM)
a: 0.937

q: Same thing, different molecule: c1ccc(-c2ccc(C(c3ccccc3)n3ccnc3)cc2)cc1 (centres undefined) [Bifonazole] (20 µM)
a: 1.27

q: Same thing, different molecule: CCn1cc(C(=O)O)c(=O)c2ccc(C)nc21 [Nalidixic acid sodium salt] (20 µM)
a: 1.09

---

# reported fold change of 2-Phenylethylamine concentration; entries follow
tested on: Ruminococcus gnavus DSM 108212; assay: fold change of 2-Phenylethylamine concentration vs plate DMSO controls (fold change (ratio)); higher = more amine produced, active = hit call of the paper (significant change in both replicates, either direction); details: incubation time: 27 h, anaerobic, 37 °C
Please reply with the value in numeric form only.

compound	result_value
Cc1onc(-c2ccccc2)c1-c1ccc(S(N)(=O)=O)cc1 [Valdecoxib] (20 µM)	0.92

q: Record request: fold change of 2-Phenylethylamine concentration value, item CC(C)(Sc1cc(C(C)(C)C)c(O)c(C(C)(C)C)c1)Sc1cc(C(C)(C)C)c(O)c(C(C)(C)C)c1 [Probucol] (20 µM)
a: 1.01

q: Same thing, different compound: C=C1[C@H](CO)[C@@H](O)C[C@@H]1n1cnc2c(=O)[nH]c(N)nc21 [Entecavir] (20 µM)
a: 0.98

q: Same thing, different compound: O=C1[C@@H]2[C@H]3CC[C@H](C3)[C@@H]2C(=O)N1CCCCN1CCN(c2ncccn2)CC1 [Tandospirone] (20 µM)
a: 1.06

---

test system: Ruminococcus gnavus DSM 108212; assay: fold change of 2-Phenylethylamine concentration vs plate DMSO controls (fold change (ratio)); higher = more amine produced, active = hit call of the paper (significant change in both replicates, either direction); conditions: incubation time: 27 h, anaerobic, 37 °C
Where a name gives a salt, the structure may show the parent alone.
# reported fold change of 2-Phenylethylamine concentration; entries follow
Please reply with the value in numeric form only.

molecule	result_value
Cc1cc(=O)oc2cc(O)ccc12 [Hymecromone] (20 µM)	0.95

q: Record request: fold change of 2-Phenylethylamine concentration value, item CCCCc1oc2ccccc2c1C(=O)c1cc(I)c(OCCN(CC)CC)c(I)c1 [Amiodarone hydrochloride] (20 µM)
a: 0.89

q: Same thing, different molecule: C[C@@H]1[C@H](O)[C@@H](C)/C=C/C=C/C=C/C=C/C=C/C=C/C=C/[C@H](O[C@@H]2O[C@H](C)[C@@H](O)[C@H](N)[C@@H]2O)C[C@@H]2O[C@](O)(C[C@@H](O)C[C@@H](O)[C@H](O)CC[C@@H](O)C[C@@H](O)CC(=O)O[C@H]1C)C[C@H](O)[C@H]2C(=O)O [Amphotericin B] (20 µM)
a: 1.25

q: Same thing, different molecule: N[C@@H](Cc1c[nH]c2ccccc12)C(=O)O [L-Tryptophan] (20 µM)
a: 1.08

q: Same thing, different molecule: CC(C)(C)C(=O)C(Oc1ccc(Cl)cc1)n1ccnc1 (stereo not drawn) [Climbazole] (20 µM)
a: 1.03

q: Same thing, different molecule: CO[C@@]1(NC(=O)C(C(=O)O)c2ccc(O)cc2)C(=O)N2C(C(=O)O)=C(CSc3nnnn3C)CO[C@@H]21 (stereo partly drawn) [Moxalactam disodium salt] (20 µM)
a: 0.0586

q: Same thing, different molecule: NC(CO)C(=O)NNCc1ccc(O)c(O)c1O (stereo not drawn) [Benserazide hydrochloride] (20 µM)
a: 1.03

q: Same thing, different molecule: CC(C)COCC(CN(Cc1ccccc1)c1ccccc1)N1CCCC1 (stereo not drawn) [Bepridil hydrochloride] (20 µM)
a: 0.824

q: Same thing, different molecule: COc1ccc(CCC(=O)c2c(O)cc(O[C@@H]3O[C@H](CO)[C@@H](O)[C@H](O)[C@H]3O[C@@H]3O[C@@H](C)[C@H](O)[C@@H](O)[C@H]3O)cc2O)cc1O [Neohesperidin Dihydrochalcone (Nhdc)] (50 µM)
a: 0.961

q: Same thing, different molecule: COc1ccc2cc1Oc1ccc(cc1)C[C@H]1c3c(cc4c(c3Oc3cc5c(cc3OC)CCN(C)[C@@H]5C2)OCO4)CCN1C [Cepharanthine] (20 µM)
a: 0.981

q: Same thing, different molecule: CCC(C)n1ncn(-c2ccc(N3CCN(c4ccc(OCC5COC(Cn6cncn6)(c6ccc(Cl)cc6Cl)O5)cc4)CC3)cc2)c1=O (stereo not drawn) [Itraconazole] (20 µM)
a: 0.997

q: Same thing, different molecule: COc1cccc(N(C)C(=S)Oc2ccc3c(c2)CCCC3)n1 [Liranaftate] (20 µM)
a: 1.69

q: Same thing, different molecule: COc1ccccc1N1CCN(CCCCNC(=O)c2ccc3ccccc3c2)CC1 (20 µM)
a: 1.3

---

# reported fold change of Putrescine concentration; entries follow
tested on: Klebsiella aerogenes DSM 30053; assay: fold change of Putrescine concentration vs plate DMSO controls (fold change (ratio)); higher = more amine produced, active = hit call of the paper (significant change in both replicates, either direction); details: incubation time: 27 h, anaerobic, 37 °C
Structures can show the parent of a compound that is named as a salt.
Please reply with the value in numeric form only.

compound	target_under_test	result_value
CN[C@H](CC(C)C)C(=O)N[C@H]1C(=O)N[C@@H](CC(N)=O)C(=O)N[C@H]2C(=O)N[C@H]3C(=O)N[C@H](C(=O)N[C@H](C(=O)O)c4cc(O)cc(O)c4-c4cc3ccc4O)[C@H](O)c3ccc(c(Cl)c3)Oc3cc2cc(c3O[C@@H]2O[C@H](CO)[C@@H](O)[C@H](O)[C@H]2O[C@H]2C[C@](C)(N)[C@H](O)[C@H](C)O2)Oc2ccc(cc2Cl)[C@H]1O [Vancomycin hydrochloride] (20 µM)	Klebsiella aerogenes DSM 30053	1.04

Field: next compound
q: Record request: fold change of Putrescine concentration value, item C=CCOC(Cn1ccnc1)c1ccc(Cl)cc1Cl (configuration not stated) [Enilconazole] (20 µM)
a: 1.01

Data credit: the supplement of paper PMC12494721
